# assay_target: ZFP SBS#1057 (synthetic)
# Sequence (chain, as listed by the source): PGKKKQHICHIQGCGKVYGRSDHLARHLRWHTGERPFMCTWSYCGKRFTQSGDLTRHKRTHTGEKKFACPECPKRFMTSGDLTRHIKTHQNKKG
# procedure_details: EMSA
# measurement_setup: tags: MBP fusion
measured_property: pKd
Remember, pKd is on a log scale: it is -log10 of the molar concentration.

Task item: Return reported pKd; argument: GCTGCAGGG (dsDNA) DNA 1: GCTGCAGGG DNA 2: CCCTGCAGC
Reply: 9.32
